test system: HOP-92; assay: NCI tumour cell line growth inhibition, 48 h
Active and inactive are the calls of the source. Rule as the data show it: active = GI50 up to about 1.1 µM and inactive = higher.
readout_name: GI50

These recorded examples may help you get a feel for the data.
{"columns": ["compound", "GI50"],
 "data": [
  ["CC#C[C@@]1(O)CCCC[C@@H]1O", "> 100 µM (inactive)"],
  ["CCOC(=O)c1c2ccc(/C=C/c3ccccn3)ccc-2c(C(=O)OCC)c1N", "> 100 µM (inactive)"],
  ["CC/C=C\\C/C=C\\C/C=C\\CCCCCCCC(=O)OCC(O)CO (stereo not given)", "> 68.1 µM (inactive)"],
  ["N#Cc1c(N)nc2c(C#N)c(N)cc3c2c1Oc1ccccc1-3", "> 100 µM (inactive)"]
]}

Need GI50 of COc1cc(/C=C2/C(=O)N(C(=O)OC(C)C)C(Cc3cc(OC)c(OC)c(C)c3OC)C(=O)N2Cc2ccccc2)c(OC)c(C)c1OC (stereo not given) , thanks.
4 µM (inactive)

* * *

system: M19-MEL; assay: NCI tumour cell line growth inhibition, 48 h
Activity calls are given as the source filed them. No stated cut-off is given here; in the data, active = GI50 up to about 1.1 µM and inactive = higher.
Would you mind answering with one of these outcomes? true (1) = active, false (0) = inactive

Some entries whose results are on file:
{"columns": ["compound", "label_class"],
 "data": [
  ["COc1cc(C2c3cc4c(cc3C(NCC(O)CO)C3COC(=O)[C@H]23)OCO4)cc(OC)c1OC (stereo partly drawn)", "true (1)"],
  ["c1cc2n(n1)CCN2", "false (0)"],
  ["COc1cc([C@@H]2c3cc4c(cc3[C@@H](NCc3ccccc3)C3COC(=O)[C@@H]32)OCO4)cc(OC)c1O (stereo partly drawn)", "false (0)"],
  ["CC(C)CCCC(C)[C@H]1CCC2[C@@H]3CCC4Nc5c(cnn5-c5ccccc5)C[C@]4(C)C3CC[C@@]21C (stereo partly drawn)", "false (0)"],
  ["CCOC(=O)NC(=O)c1cn(CCCOC(=O)CCCCCCCCC(=O)OCCCn2cc(C(=O)NC(=O)OCC)c(=O)[nH]c2=O)c(=O)[nH]c1=O", "false (0)"]
]}

Short answer needed: outcome of this test for COC(=O)[C@@H]1c2cc3c(c(O)c2[C@@H](OC2OC(C)C(OC)C(C)(OC)C2OC)C[C@]1(C)O)C(=O)c1c(O)cc2c(c1C3=O)O[C@H]1O[C@]2(C)[C@H](O)[C@@H](N(C)C)[C@@H]1O (stereo partly drawn) ?
true (1)

# repeat for CC(C)(Oc1ccc2c(=O)cc(-c3ccc(Cl)cc3)oc2c1)C(=O)Nc1c(Cl)cccc1Cl
false (0)

Lookup CCN(CC)C(=O)c1ccc(C)c(/N=N/N(C)C)c1
false (0)

* * *

system: MDA-MB-435; assay: NCI tumour cell line growth inhibition, 48 h
Calls of active or inactive are those of the source. Cut-off read from the data, not from the text of the source: active = GI50 up to about 1.1 µM and inactive = higher.
One label from this list, please: active, inactive

{"columns": ["compound", "label_class"],
 "data": [
  ["COC1CC(=O)C2C(=O)N(c3ccccc3)C(=O)C23C(C(=O)c2ccccc2)=C(C)NC13O (stereo not drawn)", "inactive"]
]}

Which result was noted for this compound in the test: CC1=C2C(=C[C@@](C)(CO)[C@@H]2O)C(=O)[C@](C)(O)C12CC2
active

Proceed to O=[N+]([O-])/C=C/c1cn(CCCCCCCCn2cc(/C=C/[N+](=O)[O-])c3ccccc32)c2ccccc12
active

Same for CCOC(=O)C1=C(c2ccccc2)N(C)c2ccccc2S1
inactive

How about CC1(C)OC[C@@H](O)[C@H](Br)CO1 ?
inactive

Also, O=c1[nH]c2cc(C(F)(F)F)ccc2nc1C(F)(F)F please.
inactive
